B1: EHEE_rd2_0196 (parent)
chain: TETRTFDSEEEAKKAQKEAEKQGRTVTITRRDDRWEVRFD

variants of: B1; assay: folding stability dG (cDNA display proteolysis); higher = more stable; conditions: PBS, room temperature
Listing: folding stability dG of selected variants
property-name: folding stability dG (kcal/mol)

D7S	2.84
Q22E	3.06
I28H	-0.123
D33I	1.37
E10P	1.88
I28G	0.232
W35E	0.481
W35S	0.473
R34W	2.79
E20L	3.14
Q16N	0.943
W35A	0.417
R30Y	2.83
Q22K	2.73
W35K	0.058
D33W	1.34
R30N	2.25
T27R	2.56
F6D	0.02
A12P	0.214
K14W	3.02
F6W	1.28
S8M	1.63
E11A	2.75
R34S	2.76
E10W	2.93
Q16K	3.04
R31W	2.18
G23E	1.11
T25P	2.21
T3W	3.06
V37H	0.212
A12T	1.04
V26M	1.18
R31N	2.57
Q16D	0.725
T3P	2.73
F39C	2.14
E18I	2.74
D32L	2.63
